Cited source: patent US20200262868A1

# target-or-test-system: T1, human NK2 Receptor (human, UniProt P21452 1-398)
# T1 construct: whole, on cells; calcium assays used intact CHO-hNK2 cells; also called hNK2R; hNK2
# T1 sequence (looked up): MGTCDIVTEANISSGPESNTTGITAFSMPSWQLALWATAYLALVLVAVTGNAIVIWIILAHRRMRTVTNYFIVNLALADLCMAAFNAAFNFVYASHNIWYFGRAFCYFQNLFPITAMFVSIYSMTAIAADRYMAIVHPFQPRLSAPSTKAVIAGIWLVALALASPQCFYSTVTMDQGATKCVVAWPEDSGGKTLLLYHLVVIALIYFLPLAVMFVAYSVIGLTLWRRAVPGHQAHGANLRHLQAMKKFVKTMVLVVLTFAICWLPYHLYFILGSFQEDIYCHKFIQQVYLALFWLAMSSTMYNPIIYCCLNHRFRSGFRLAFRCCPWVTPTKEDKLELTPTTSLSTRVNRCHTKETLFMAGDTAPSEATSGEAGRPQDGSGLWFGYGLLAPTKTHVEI
# experiment-notes: radioligand competition, displacement of 0.1 nM [125I]-NKA from CHO-hNK2 membranes
Where no end group is shown, it is not given here. [ ]: non-standard residue; d: D form. NMeL = CN[C@@H](CC(C)C)C(=O)O
property-measured: Ki (nM)
Express it in nM; write the number only.

INSERT INTO results (binder, property_measured, endpoint_result) VALUES
  ('DRFVALM (HELM PEPTIDE1{D.R.F.V.[bAla].L.M.[am]}$$$$V2.0; N-terminus assumed; SMILES CSCC[C@H](NC(=O)[C@H](CC(C)C)NC(=O)CCNC(=O)[C@@H](NC(=O)[C@H](Cc1ccccc1)NC(=O)[C@H](CCCNC(=N)N)NC(=O)[C@@H](N)CC(=O)O)C(C)C)C(N)=O, synthetic heptapeptide analog of neurokinin A, Fmoc solid-phase synthesis; also called Compound I; Cmpd I) [Heptapeptide analog I, Asp-Arg-Phe-Val-(β-Ala)-Leu-Met-NH2]', 'Ki', 0.88);

--- query ---
Q: For the binder DKFVG[NMeL]M-NH2 (synthetic heptapeptide analog of neurokinin A, Fmoc solid-phase synthesis; also called Compound A; Cmpd A) [Heptapeptide analog A, Asp-Lys-Phe-Val-Gly-(NMe-Leu)-Met-NH2] , report Ki.
Ans: 0.2
